Hello, the source for this data is patent US12110294B2, in case you need it.

- measurement_target: CD73 activity in MDA-MB-231-GFP cells (Homo sapiens)
- Construct: endogenous in cells; host or cells: MDA-MB-231-GFP cells
- Sequence (P21589 27-549): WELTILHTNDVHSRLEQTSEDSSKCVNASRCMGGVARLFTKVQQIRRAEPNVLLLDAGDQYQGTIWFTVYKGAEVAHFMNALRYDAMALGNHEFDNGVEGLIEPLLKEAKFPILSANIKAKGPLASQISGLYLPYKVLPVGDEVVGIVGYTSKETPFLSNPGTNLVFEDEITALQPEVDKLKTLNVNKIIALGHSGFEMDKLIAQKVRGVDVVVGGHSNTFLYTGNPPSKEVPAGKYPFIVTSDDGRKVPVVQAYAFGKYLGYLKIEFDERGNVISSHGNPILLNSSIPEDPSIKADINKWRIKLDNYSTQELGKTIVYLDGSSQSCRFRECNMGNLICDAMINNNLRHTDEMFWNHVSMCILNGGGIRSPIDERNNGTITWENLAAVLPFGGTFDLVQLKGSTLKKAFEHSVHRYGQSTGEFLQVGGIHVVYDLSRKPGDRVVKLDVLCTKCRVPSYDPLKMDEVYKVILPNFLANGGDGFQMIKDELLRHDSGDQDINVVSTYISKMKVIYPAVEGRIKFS
- test_protocol: MDA-MB-231 Cell Based CD73 Activity Assay (DMEM)
- measurement_conditions: 3000 cells per well, DMEM medium with 10% human plasma, overnight compound treatment, AMP 200 uM
pEC50: −log10 of the molar value.
observation_type: pEC50

The cases that follow already have their pEC50 on record.
{"molecule": "O=c1[nH]cc(-c2cc(N3CC(Oc4ccc(C(F)(F)F)cn4)C(F)(F)C3)c3ncnn3n2)c(=O)[nH]1 (racemic) [Example 432]", "measurement_target": "CD73 activity in MDA-MB-231-GFP cells (Homo sapiens)", "data_value": 8.59}
{"molecule": "O=c1[nH]cc(-c2cc([C@H]3C[C@@H]3c3cnc4ccccc4c3)c3nccn3n2)c(=O)[nH]1 (racemic) [Example 163]", "measurement_target": "CD73 activity in MDA-MB-231-GFP cells (Homo sapiens)", "data_value": 7.98}
{"molecule": "O=C(c1cn2nc(-c3c[nH]c(=O)[nH]c3=O)cc([C@H]3C[C@@H]3c3ccc(F)cc3)c2n1)N1C[C@@H](F)[C@@H](F)C1 (racemic) [Example 200]", "measurement_target": "CD73 activity in MDA-MB-231-GFP cells (Homo sapiens)", "data_value": 6.09}

[I] O=c1[nH]cc(-c2cc([C@H]3C[C@@H]3c3ccc4c(c3)ncn4CC(F)(F)F)c3nccn3n2)c(=O)[nH]1 [Example 324]
[II] O=c1[nH]cc(-c2cc([C@H]3C[C@@H]3c3nc4ccccc4[nH]3)c3nccn3n2)c(=O)[nH]1 (racemic) [Example 461]
Q: Out of I and II , name the one with the higher pEC50. Refer to your chosen entry by its label in the reply.
A: I

[1] O=c1[nH]cc(-c2cc([C@H]3C[C@@H]3c3cnn(C(F)F)c3)c3nccn3n2)c(=O)[nH]1 (racemic) [Example 368]
[2] O=c1[nH]cc(-c2cc([C@H]3C[C@@H]3c3ccc(Cl)cc3)c3ncc(F)n3n2)c(=O)[nH]1 (racemic) [Example 182]
Q: Sort 1 and 2 by pEC50 descending and give the first. Write the label of whichever entry you select.
A: 2
(2: 7.98, 1: 7.69)

[1] O=c1[nH]cc(-c2cc([C@H]3C[C@@H]3c3ccc4ncsc4c3)c3nccn3n2)c(=O)[nH]1 (racemic) [Example 276]
[2] O=c1[nH]cc(-c2cc([C@H]3C[C@@H]3c3cnc(C(F)(F)F)s3)c3nccn3n2)c(=O)[nH]1 (racemic) [Example 365]
[3] O=c1[nH]cc(-c2cc([C@H]3C[C@@H]3c3cnn(C(F)F)c3)c3ncc(F)n3n2)c(=O)[nH]1 (single isomer, unassigned) [Example 371]
Q: Hey, quick one: sort these by pEC50, low to high? Please list the labels in the order you were asked to rank them.
A: 2, 3, 1

---

- measurement_target: CD73 activity in MDA-MB-231-GFP cells (Homo sapiens)
- Construct: endogenous in cells; host or cells: MDA-MB-231-GFP cells
- test_protocol: MDA-MB-231 Cell Based CD73 Activity Assay (DMEM)
- measurement_conditions: 3000 cells per well, DMEM medium with 10% human plasma, overnight compound treatment, AMP 200 uM
observation_type: EC50 (nM)

{"compound": "O=c1[nH]cc(-c2cc([C@H]3C[C@@H]3c3ccc(OC(F)(F)F)nc3)c3nccn3n2)c(=O)[nH]1 (racemic) [Example 376]", "measurement_target": "CD73 activity in MDA-MB-231-GFP cells (Homo sapiens)", "result_unit": "nM", "EC50": 19.3}
{"compound": "O=c1[nH]cc(-c2cc([C@H]3C[C@@H]3c3ccc4c(C5CC5)nn(CC(F)(F)F)c4c3)c3nccn3n2)c(=O)[nH]1 (racemic) [Example 128]", "measurement_target": "CD73 activity in MDA-MB-231-GFP cells (Homo sapiens)", "result_unit": "nM", "EC50": 0.4}
{"compound": "O=c1[nH]cc(-c2cc([C@H]3C[C@@H]3c3cnn(C(F)(F)F)c3)c3nccn3n2)c(=O)[nH]1 (racemic) [Example 366]", "measurement_target": "CD73 activity in MDA-MB-231-GFP cells (Homo sapiens)", "result_unit": "nM", "EC50": 16.4}
{"compound": "O=c1[nH]cc(-c2cc([C@H]3C[C@@H]3c3ccc4c(F)nn(CC(F)(F)F)c4c3)c3ncc(Cl)n3n2)c(=O)[nH]1 (racemic) [Example 213]", "measurement_target": "CD73 activity in MDA-MB-231-GFP cells (Homo sapiens)", "result_unit": "nM", "EC50": 0.45}

[a] O=c1[nH]cc(-c2cc([C@H]3C[C@@H]3c3ccc4ncccc4c3)c3nccn3n2)c(=O)[nH]1 (racemic) [Example 157]
[b] O=c1[nH]cc(-c2cc([C@H]3C[C@@H]3c3cncnc3)c3ncc(F)n3n2)c(=O)[nH]1 (racemic) [Example 179]
Q: When their EC50 values are compared, which is larger, a or b ? Answer with the label corresponding to your selection.
A: b
(b: 60.5 nM, a: 2.81 nM)

[1] COC(=O)c1ccc([C@H]2C[C@@H]2c2cc(-c3c[nH]c(=O)[nH]c3=O)nn3ccnc23)cc1 (racemic) [Example 281]
[2] O=c1[nH]cc(-c2cc([C@H]3C[C@@H]3c3cnc4cnn(CC(F)(F)F)c4c3)c3nccn3n2)c(=O)[nH]1 (racemic) [Example 614]
[3] O=c1[nH]cc(-c2cc([C@H]3C[C@@H]3c3ccc4cccnc4c3)c3nccn3n2)c(=O)[nH]1 (racemic) [Example 154]
Q: // sort entries: EC50, high to low # the answer lists labels in the order requested
A: 1, 3, 2
